Reported viability, T/C by item:
Tested on: MDA-MB-231 multicell spheroids, viability
Assay: Anticancer human tumor MDA-MB-231 cell line growth inhibition [PI3K];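 also: spheroids exposed to agents for seven days before reading; percent of vehicle control luminescence with DMSO treated spheroids as 100%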
Details: second compound 0.1 µM; first compound 0.01 µM; active compounds read low
Text: Combinatorial screen of targeted agents with the PI3K inhibitors inavolisib, alpelisib, duvelisib, and copanlisib in multi-cell type tumor spheroids A high-throughput screen of multi-cell type tumor spheroids was designed to identify active combinations of targeted small molecules and PI3K pathway inhibitors. […] Compounds. […] If the clinical Cmax for an agent had not been determined, the highest concentration tested was 10 microM. […]

Past entries and their recorded results:
INSERT INTO measurements (compound, observed_value) VALUES
  ('CC(C)n1nc(-c2ccc3oc(N)nc3c2)c2c(N)ncnc21 + COc1c(OCCCN2CCOCC2)ccc2c3n(c(=NC(=O)c4cnc(N)nc4)nc12)CCN3', '34.7%'),
  ('Cn1ncnc1[C@H]1c2n[nH]c(=O)c3cc(F)cc(c23)N[C@@H]1c1ccc(F)cc1 + Cc1nc(NC(=O)N2CCCC2C(N)=O)sc1-c1ccnc(C(C)(C)C(F)(F)F)c1', '68.7%'),
  ('CCN1CCN(Cc2ccc(Nc3ncc(F)c(-c4cc(F)c5nc(C)n(C(C)C)c5c4)n3)nc2)CC1 + CC(Nc1ncnc2nc[nH]c12)c1cc2cccc(Cl)c2c(=O)n1-c1ccccc1', '84.4%');

Which viability, T/C is reported for this compound? CC(C)n1nc(-c2ccc3oc(N)nc3c2)c2c(N)ncnc21 + CC(Nc1ccc2c(c1)OCCn1cc(N3C(=O)OCC3C(F)F)nc1-2)C(N)=O 42.7%

Another compound to check: CC(=O)c1c(C)c2cnc(Nc3ccc(N4CCNCC4)cn3)nc2n(C2CCCC2)c1=O + Cc1nc(NC(=O)N2CCCC2C(N)=O)sc1-c1ccnc(C(C)(C)C(F)(F)F)c1 73.4%
